Consider the following compounds and their measured IC50 readings.
Target: CDK9/CyclinT1 (Homo sapiens, UniProt P50750)
Sequence (P50750 whole entry): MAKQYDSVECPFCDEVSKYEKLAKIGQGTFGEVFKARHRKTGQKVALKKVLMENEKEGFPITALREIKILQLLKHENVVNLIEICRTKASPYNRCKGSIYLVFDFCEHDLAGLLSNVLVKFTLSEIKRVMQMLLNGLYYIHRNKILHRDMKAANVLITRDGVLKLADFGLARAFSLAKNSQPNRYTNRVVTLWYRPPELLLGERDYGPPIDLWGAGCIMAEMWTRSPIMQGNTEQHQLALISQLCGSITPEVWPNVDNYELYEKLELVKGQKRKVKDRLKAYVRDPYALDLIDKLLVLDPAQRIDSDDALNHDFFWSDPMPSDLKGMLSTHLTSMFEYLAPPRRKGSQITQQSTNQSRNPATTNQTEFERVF
Sequence (O60563 whole entry partner): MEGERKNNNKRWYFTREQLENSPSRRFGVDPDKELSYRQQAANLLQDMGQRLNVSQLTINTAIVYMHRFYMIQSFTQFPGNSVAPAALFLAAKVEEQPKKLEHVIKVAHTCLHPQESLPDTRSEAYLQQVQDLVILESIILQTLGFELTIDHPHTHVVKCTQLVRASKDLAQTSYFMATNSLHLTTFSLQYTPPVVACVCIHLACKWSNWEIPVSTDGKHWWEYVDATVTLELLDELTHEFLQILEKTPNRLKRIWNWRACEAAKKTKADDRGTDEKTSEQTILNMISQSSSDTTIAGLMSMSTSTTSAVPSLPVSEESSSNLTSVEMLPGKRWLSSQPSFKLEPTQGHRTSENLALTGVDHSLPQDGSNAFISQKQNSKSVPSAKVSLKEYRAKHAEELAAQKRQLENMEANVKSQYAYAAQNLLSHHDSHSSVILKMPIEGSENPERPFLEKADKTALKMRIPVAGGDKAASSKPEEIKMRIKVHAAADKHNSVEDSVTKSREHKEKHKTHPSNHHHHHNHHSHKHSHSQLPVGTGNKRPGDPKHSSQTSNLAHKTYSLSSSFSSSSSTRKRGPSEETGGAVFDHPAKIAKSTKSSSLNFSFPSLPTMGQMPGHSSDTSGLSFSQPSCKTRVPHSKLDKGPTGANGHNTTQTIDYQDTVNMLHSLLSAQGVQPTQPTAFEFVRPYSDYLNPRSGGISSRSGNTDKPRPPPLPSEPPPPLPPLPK
Assay: CDK9/CyclinT1 kinase inhibitory activity (Caliper mobility shift)
Conditions: enzyme 12.5 nM, ATP 10M, 28° C. 30 min; read-out: CDK9/Cyclin T1 IC50

Known results for compounds:
>>> result("CC(C)(N)c1cnc2c(F)cc(-c3nc(N[C@@H]4CCOC[C@H]4O)ncc3Cl)cc2c1")
"100 to 1000 nM"
>>> result("CNC(C)c1cnc2c(F)cc(-c3nc(N[C@@H]4CCOC[C@H]4O)ncc3Cl)cc2c1 (single isomer, unassigned) [Example 32a]")
"100 to 1000 nM"
>>> result("CC(C)n1c(C(C)(C)O)nc2c(F)cc(-c3cc(N[C@@H]4CCOC[C@H]4O)ncc3Cl)cc21")
"100 to 1000 nM"
>>> result("CC(C)(O)c1cnc2c(F)cc(-c3nc(N[C@@H]4CCOC[C@H]4O)ncc3C#N)cc2c1Cl")
"≥ 1000 nM"

Note: attention shifts to another entry.
For O[C@@H]1COCC[C@H]1Nc1ncc(Cl)c(-c2cc(F)c3ncc4c(c3c2)CCNC4)n1 , write its IC50.
10 to 100 nM

---

Molecular target: CDK7/CyclinH/MAT1 (Homo sapiens)
Sequence (P50613 whole entry): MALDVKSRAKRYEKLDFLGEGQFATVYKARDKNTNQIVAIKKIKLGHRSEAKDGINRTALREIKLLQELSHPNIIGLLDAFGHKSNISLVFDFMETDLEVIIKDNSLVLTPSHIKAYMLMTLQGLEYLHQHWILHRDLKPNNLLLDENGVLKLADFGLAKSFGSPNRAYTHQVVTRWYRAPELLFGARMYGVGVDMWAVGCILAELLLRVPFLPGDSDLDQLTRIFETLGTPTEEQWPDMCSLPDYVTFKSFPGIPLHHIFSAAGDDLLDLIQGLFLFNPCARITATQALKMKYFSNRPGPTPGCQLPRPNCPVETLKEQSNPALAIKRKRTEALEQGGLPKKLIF
Sequence (P51946 whole entry partner): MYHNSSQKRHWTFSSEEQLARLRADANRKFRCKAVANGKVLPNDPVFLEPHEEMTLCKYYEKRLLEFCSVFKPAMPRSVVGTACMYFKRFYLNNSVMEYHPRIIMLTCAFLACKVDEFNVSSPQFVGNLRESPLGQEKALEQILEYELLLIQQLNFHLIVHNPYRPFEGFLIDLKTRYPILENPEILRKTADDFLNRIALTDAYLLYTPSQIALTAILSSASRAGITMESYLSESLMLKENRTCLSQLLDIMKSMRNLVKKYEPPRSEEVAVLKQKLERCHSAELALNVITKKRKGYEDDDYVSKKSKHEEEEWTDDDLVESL
Sequence (P51948 whole entry partner): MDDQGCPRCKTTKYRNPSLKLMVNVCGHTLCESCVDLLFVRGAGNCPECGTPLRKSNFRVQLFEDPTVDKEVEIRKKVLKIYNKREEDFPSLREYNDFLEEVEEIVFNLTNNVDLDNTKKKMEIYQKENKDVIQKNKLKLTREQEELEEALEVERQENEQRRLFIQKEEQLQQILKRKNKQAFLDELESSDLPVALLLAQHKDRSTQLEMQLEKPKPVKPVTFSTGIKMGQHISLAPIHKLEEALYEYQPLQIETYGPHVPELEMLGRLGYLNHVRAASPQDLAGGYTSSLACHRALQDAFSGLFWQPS
Test: CDK7/CyclinH/MAT1 kinase inhibitory activity (Caliper mobility shift)
Details: enzyme 12.5 nM, ATP 70 μM, 28° C. 30 min; read-out: CDK7/Cyclin H/MAT1 IC50
observed property: IC50

Known results for compounds:
>>> result("[2H]C([2H])([2H])C(O)(c1cc2cc(-c3nc(N[C@@H]4CCOC[C@H]4O)ncc3Cl)cc(F)c2nc1C)C([2H])([2H])[2H]")
"≥ 1000 nM"
>>> result("CC(C)n1c(C(C)(C)O)nc2c(F)cc(-c3cc(N[C@@H]4CCOC[C@H]4O)ncc3Cl)cc21")
"≥ 1000 nM"

Note: attention shifts to another entry.
Return reported IC50 for target or system CDK7/CyclinH/MAT1 (Homo sapiens), item Cc1nc2c(F)cc(-c3nc(N[C@@H]4CCOC[C@H]4O)ncc3Cl)cc2c(C)c1[C@@H](C)O (single isomer, unassigned) [Example 15a] .
≥ 1000 nM
